# Protocol notes: Permeability across human Caco-2 cell membrane at 20 uM
# Type: ADME, cell-based
# Condition label: read-out: permeability
// returns Condition not met unless Papp at 20 µM is strictly below 10 ×10⁻⁶ cm/s, in which case Condition met

Compound | Group
OC[C@@H](O)[C@@H](O)[C@H](O)c1c[nH]c(-c2ncccn2)n1 | Condition not met
OC[C@@H](O)[C@@H](O)[C@H](O)c1c[nH]c(-c2cnccn2)n1 | Condition not met
CC(O)c1nc([C@@H](O)[C@H](O)[C@H](O)CO)c[nH]1 (stereo not given in full) | Condition met
CC(=O)c1nc([C@@H](O)[C@H](O)[C@H](O)C(=O)N(C)C)c[nH]1 | Condition not met
CC(=O)c1nc([C@@H](O)[C@H](O)[C@H](O)CO)c[nH]1 | Condition not met
CC(=O)c1nc([C@H](O)[C@@H](O)[C@@H](O)CO)c[nH]1 | Condition not met
OC[C@@H](O)[C@@H](O)[C@H](O)c1c[nH]c(-c2ncon2)n1 | Condition not met
Cc1nc(-c2nc([C@@H](O)[C@H](O)[C@H](O)CO)c[nH]2)cs1 | Condition not met
OC[C@@H](O)[C@@H](O)[C@H](O)c1c[nH]c(-c2cocn2)n1 | Condition met

###

# Protocol notes: Cmax in 129/SvEvBrd x C57BL/6 hybrid mouse at 100 mg/kg, po
# Type: ADME, organism-based
# Set-up: dose 100 mg/kg, route oral
# Condition label: in vivo
Experimental endpoint: Cmax

Entry smiles | Obs value
CCCCCCCCCCCC/C=C/C[C@@H](O)[C@H](CO)NCc1c(CO)cnc(C)c1O | < 1000 nM

###

# Test system: Mus musculus
# Protocol notes: Induction of lymphopenia in 129/SvEvBrd x C57BL/6 hybrid mouse assessed as change in circulating lymphocyte level at 100 mg/kg, po administered as single dose after 18 hrs by complete blood count analysis relative to control
# Type: functional
Listed below: Activity values for each entry.
Experimental endpoint: Activity (%)

Molecule | Experimental endpoint | Obs value
Cn1cnc(-c2nc([C@@H](O)[C@H](O)[C@H](O)CO)c[nH]2)c1 | Activity | -5
CC(O)c1nc([C@@H](O)[C@H](O)[C@H](O)CO)c[nH]1 (stereo not given in full) | Activity | -15
Cc1scnc1-c1nc([C@@H](O)[C@H](O)[C@H](O)CO)c[nH]1 | Activity | -7
CC(=O)c1ncc([C@@H](O)[C@H](O)[C@H](O)CO)s1 | Activity | 25
CC(=O)c1nc([C@@H](O)[C@@H](O)[C@H](O)CO)c[nH]1 | Activity | -31
OC[C@@H](O)[C@@H](O)[C@H](O)c1c[nH]c(-c2cscn2)n1 | Activity | -33
CC(=O)c1nc([C@H](O)[C@@H](O)[C@@H](O)CO)c[nH]1 | Activity | 0
CC(=O)c1nc([C@@H](O)[C@H](O)[C@H](O)CO)cn1C | Activity | 10
OC[C@@H](O)[C@@H](O)[C@H](O)c1c[nH]c(-c2ncc[nH]2)n1 | Activity | -53
CC(=O)c1cccc([C@@H](O)[C@H](O)[C@H](O)CO)n1 | Activity | 45

###

# Protocol notes: Tmax in 129/SvEvBrd x C57BL/6 hybrid mouse
# Format: ADME, organism-based
# Condition label: in vivo
Experimental endpoint: Tmax (min)

Entry smiles | Obs value
CC(=O)c1nc([C@@H](O)[C@H](O)[C@H](O)CO)c[nH]1 | 30

###

# Protocol notes: Clearance in 129/SvEvBrd x C57BL/6 hybrid mouse at 1 mg/kg, iv
# Type: ADME, organism-based
# Set-up: dose 1 mg/kg, route intravenous
# Condition label: in vivo
Experimental endpoint: clearance (mL/min/kg)

Entry smiles | Obs value
OC[C@@H](O)[C@@H](O)[C@H](O)c1c[nH]c(-c2cnccn2)n1 | 13.4
CC(=O)c1nc([C@@H](O)[C@H](O)[C@H](O)C(=O)N(C)C)c[nH]1 | 11.7
CC(=O)c1nc([C@@H](O)[C@H](O)[C@H](O)CO)c(-c2ccccc2)[nH]1 | 23.9
CC(=O)N/N=C(\C)c1nc([C@@H](O)[C@H](O)[C@H](O)CO)c[nH]1 | 8.9
OC[C@@H](O)[C@@H](O)[C@H](O)c1c[nH]c(-c2ncccn2)n1 | 15.2
OC[C@@H](O)[C@@H](O)[C@H](O)c1c[nH]c(-c2ncn(Cc3ccccc3)n2)n1 | 16.4
OC[C@@H](O)[C@@H](O)[C@H](O)c1c[nH]c(-c2cscn2)n1 | 12.7
Cn1cnc(-c2nc([C@@H](O)[C@H](O)[C@H](O)CO)c[nH]2)c1 | 9.1
CCc1[nH]c(C(C)=O)nc1[C@@H](O)[C@H](O)[C@H](O)CO | 17.3
CC(=O)c1nc([C@@H](O)[C@@H](O)[C@H](O)CO)c[nH]1 | 18.8

###

# Test system: Mus musculus
# Protocol notes: AUC (0 to infinity) in 129/SvEvBrd x C57BL/6 hybrid mouse at 10 mg/kg, po
# Type: ADME, organism-based, Plasma
# Set-up: time infinity, dose 10 mg/kg, route oral
# Condition label: in vivo

Molecule | Value unit | AUC
CN(C)C(=O)c1nc([C@@H](O)[C@H](O)[C@H](O)CO)c[nH]1 | µM·h | 6.7
CC(=O)c1ncc([C@@H](O)[C@H](O)[C@H](O)CO)s1 | µM·h | 2.7
OC[C@@H](O)[C@@H](O)[C@H](O)c1c[nH]c(C(F)(F)C(F)(F)F)n1 | µM·h | 10
CC(O)c1nc([C@@H](O)[C@H](O)[C@H](O)CO)c[nH]1 (some centres undefined) | µM·h | 44.5

###

# Protocol notes: Volume of distribution in 129/SvEvBrd x C57BL/6 hybrid mouse
# Format: ADME, organism-based
# Condition label: in vivo

Entry smiles | Vd / L/kg
CC(=O)c1nc([C@@H](O)[C@H](O)[C@H](O)CO)c[nH]1 | 0.067

###

# Protocol notes: AUC (0 to infinity) in 129/SvEvBrd x C57BL/6 hybrid mouse at 10 mg/kg, po
# Assay type: ADME, organism-based, Plasma
# Parameters: time infinity, dose 10 mg/kg, route oral
# Condition label: 129/SvEvBrd x C57BL/6 hybrid, plasma
Each entry below carries its recorded AUC(0-inf).

Entry smiles | AUC(0-inf)
CO[C@H](c1c[nH]c(C(C)=O)n1)[C@H](O)[C@H](O)CO | 42.7 µM·h
OC[C@@H](O)[C@@H](O)[C@H](O)c1c[nH]c(-c2cocn2)n1 | 3.4 µM·h
CC(=O)c1nc([C@@H](O)[C@@H](O)[C@H](O)CO)c[nH]1 | 15.7 µM·h
OC[C@@H](O)[C@@H](O)[C@H](O)c1c[nH]c(-c2cscn2)n1 | 5.8 µM·h
CC(F)(F)c1nc([C@@H](O)[C@H](O)[C@H](O)CO)c[nH]1 | 4.7 µM·h
Cn1cnc(-c2nc([C@@H](O)[C@H](O)[C@H](O)CO)c[nH]2)c1 | 2.6 µM·h
CCc1[nH]c(C(C)=O)nc1[C@@H](O)[C@H](O)[C@H](O)CO | 6.4 µM·h
CC(=O)c1nc([C@@H](O)[C@H](O)[C@H](O)CO)c[nH]1 | 35.8 µM·h
OC[C@@H](O)[C@@H](O)[C@H](O)c1c[nH]c(-c2ncon2)n1 | 3.2 µM·h
Cc1nc(-c2nc([C@@H](O)[C@H](O)[C@H](O)CO)c[nH]2)cs1 | 6.9 µM·h
CC(=O)c1nc([C@@H](O)[C@H](O)[C@H](O)C(=O)N(C)C)c[nH]1 | 0.2 µM·h
CC(=O)c1nc([C@@H](O)[C@H](O)[C@H](O)CO)c(C)[nH]1 | 10.8 µM·h
CC(=O)c1nc([C@H](O)[C@@H](O)[C@@H](O)CO)c[nH]1 | 18 µM·h
OC[C@@H](O)[C@@H](O)[C@H](O)c1c[nH]c(-c2cnccn2)n1 | 4.7 µM·h
O=C(c1ccccc1)c1nc([C@@H](O)[C@H](O)[C@H](O)CO)c[nH]1 | 6 µM·h
OC[C@@H](O)[C@@H](O)[C@H](O)c1c[nH]c(-c2ncccn2)n1 | 3 µM·h
CC(=O)N/N=C(\C)c1nc([C@@H](O)[C@H](O)[C@H](O)CO)c[nH]1 | 3.6 µM·h
OC[C@@H](O)[C@@H](O)[C@H](O)c1c[nH]c(-c2ncn(Cc3ccccc3)n2)n1 | 1.7 µM·h
CC(=O)c1nc([C@@H](O)[C@H](O)[C@H](O)CO)c(-c2ccccc2)[nH]1 | 11.5 µM·h
OC[C@@H](O)[C@@H](O)[C@H](O)c1c[nH]c(-c2ncc[nH]2)n1 | 5.9 µM·h
CC(=O)c1cccc([C@@H](O)[C@H](O)[C@H](O)CO)n1 | 43.4 µM·h
CC(=O)c1nc([C@@H](O)[C@H](O)[C@H](O)CO)cn1C | 41.1 µM·h

Values were extracted from ChEMBL document CHEMBL1137009.
